- measured_target: UniProt P03070
- Sequence (P03070 whole entry): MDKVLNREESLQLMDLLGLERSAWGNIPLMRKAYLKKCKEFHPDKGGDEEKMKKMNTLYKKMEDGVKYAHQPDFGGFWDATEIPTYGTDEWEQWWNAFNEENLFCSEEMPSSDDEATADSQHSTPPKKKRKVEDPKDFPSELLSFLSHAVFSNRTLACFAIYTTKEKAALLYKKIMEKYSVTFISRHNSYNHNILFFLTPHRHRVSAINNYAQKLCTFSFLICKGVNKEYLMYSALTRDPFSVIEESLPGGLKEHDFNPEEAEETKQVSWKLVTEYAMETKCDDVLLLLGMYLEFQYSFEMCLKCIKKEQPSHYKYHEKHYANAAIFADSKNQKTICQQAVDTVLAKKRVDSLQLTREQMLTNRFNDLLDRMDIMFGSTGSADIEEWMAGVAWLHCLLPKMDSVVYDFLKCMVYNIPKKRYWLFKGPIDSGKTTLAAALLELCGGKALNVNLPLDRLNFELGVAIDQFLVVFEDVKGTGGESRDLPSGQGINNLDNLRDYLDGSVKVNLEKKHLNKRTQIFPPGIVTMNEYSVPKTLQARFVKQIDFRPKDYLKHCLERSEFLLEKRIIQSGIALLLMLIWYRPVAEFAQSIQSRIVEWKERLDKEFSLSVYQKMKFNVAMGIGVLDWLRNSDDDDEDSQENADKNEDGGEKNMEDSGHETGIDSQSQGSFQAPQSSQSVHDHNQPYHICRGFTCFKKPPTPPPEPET
- method_notes: Inhibition of binding of SV40 large T antigen to DNA by scintillation proximity assay
- test_settings: Betapolyomavirus macacae
Active and inactive are the calls of the source. The calls are words filed in the database; no cut-off is given here.
outcome_measure: Activity

structure_as_smiles	value_observed
O=C(Nc1ccc2c(c1)OCO2)[C@H]1[C@@H](C(=O)O)C2(O[C@H]1c1ccc(Cl)cc1)C(=O)c1ccccc1C2=O	inactive
O=C(Nc1ccc(-c2csnn2)cc1)[C@H]1[C@@H](C(=O)O)C2(O[C@H]1c1ccc(Cl)c(Cl)c1)C(=O)c1ccccc1C2=O	inactive
O=C(Nc1ccc(N2CCOCC2)cc1)[C@H]1[C@@H](c2ccc(Br)c(Br)c2)OC2(C(=O)c3ccccc3C2=O)[C@H]1C(=O)O	inactive
CC(=O)c1ccc(NC(=O)[C@H]2[C@@H](C(=O)O)C3(O[C@H]2c2ccc(Cl)c(Cl)c2)C(=O)c2ccccc2C3=O)cc1	inactive
Cc1ccc2c(c1)C(=O)[C@@]1(O[C@@H](c3ccc(Cl)c(Cl)c3)[C@@H](C(=O)Nc3ccc(-c4csnn4)cc3)[C@H]1C(=O)O)C2=O	inactive
CC(=O)Nc1ccc(NC(=O)[C@H]2[C@@H](C(=O)O)C3(O[C@H]2c2ccc(Cl)c(Cl)c2)C(=O)c2ccccc2C3=O)cc1	inactive
